reported-conditions: 293.15 K; 101.33 kPa; Liquid; Concentric cylinders viscometry
measurement-type: viscosity (mPa·s)

Sample records with viscosity:
molecule="CCCCn1cc[n+](C)c1C.O=S(=O)([O-])O [1-butyl-2,3-dimethylimidazolium hydrogen sulfate]" reported_value=469.7
molecule="CCCCn1cc[n+](C)c1.O=P([O-])(O)O [1-butyl-3-methylimidazolium dihydrogen phosphate]" reported_value=159
molecule="CCCn1cc[n+](C)c1C.O=S(=O)([O-])O [2,3-dimethyl-1-propylimidazolium hydrogen sulfate]" reported_value=362.3
molecule="CCC[n+]1ccn(C)c1.O=P([O-])(O)O [1-methyl-3-propylimidazolium dihydrogen phosphate]" reported_value=78.41
molecule="CCn1cc[n+](C)c1C.O=S(=O)([O-])O [1-ethyl-2,3-dimethylimidazolium hydrogen sulfate]" reported_value=263.6

(a) CCCCn1cc[n+](C)c1.O=C([O-])O [1-butyl-3-methylimidazolium hydrogen carbonate]
(b) CCCCC[n+]1ccn(C)c1.O=P([O-])(O)O [1-methyl-3-pentylimidazolium dihydrogen phosphate]
Looking only at measured viscosity, which entry is lower, a or b ? Please identify the chosen entry by its label. a
(a: 94.8 mPa·s, b: 259.1 mPa·s)

(P) CCCCCn1cc[n+](C)c1.O=C([O-])O [3-methyl-1-pentylimidazolium hydrogen carbonate]
(Q) CCCCCn1cc[n+](C)c1C.O=S(=O)([O-])O [2,3-dimethyl-1-pentylimidazolium hydrogen sulfate]
Could you kindly indicate whether P or Q has the higher viscosity value? Please identify the chosen entry by its label. Q

###

reported-conditions: 313.15 K; 101.33 kPa; Liquid; Alternating current cell with electrodes
measurement-type: electrical conductivity (S/m)

compound="CCCCCn1cc[n+](C)c1C.O=S(=O)([O-])O [2,3-dimethyl-1-pentylimidazolium hydrogen sulfate]" measurement_unit=S/m reported_value=0.197

(I) CCCn1cc[n+](C)c1C.O=S(=O)([O-])O [2,3-dimethyl-1-propylimidazolium hydrogen sulfate]
(II) CCCCn1cc[n+](C)c1.O=C([O-])O [1-butyl-3-methylimidazolium hydrogen carbonate]
Looking only at measured electrical conductivity, which entry is lower, I or II ? Please identify the chosen entry by its label. I
(I: 0.267 S/m, II: 0.557 S/m)

(1) CCn1cc[n+](C)c1C.O=S(=O)([O-])O [1-ethyl-2,3-dimethylimidazolium hydrogen sulfate]
(2) CCCCn1cc[n+](C)c1.O=P([O-])(O)O [1-butyl-3-methylimidazolium dihydrogen phosphate]
Could you kindly indicate whether 1 or 2 has the higher electrical conductivity value? Please identify the chosen entry by its label. 2
(2: 0.628 S/m, 1: 0.308 S/m)

(P) CCCCC[n+]1ccn(C)c1.O=P([O-])(O)O [1-methyl-3-pentylimidazolium dihydrogen phosphate]
(Q) CCCCn1cc[n+](C)c1C.O=S(=O)([O-])O [1-butyl-2,3-dimethylimidazolium hydrogen sulfate]
Could you kindly indicate whether P or Q has the higher electrical conductivity value? Please identify the chosen entry by its label. P

(a) CCCCCn1cc[n+](C)c1.O=C([O-])O [3-methyl-1-pentylimidazolium hydrogen carbonate]
(b) CCC[n+]1ccn(C)c1.O=P([O-])(O)O [1-methyl-3-propylimidazolium dihydrogen phosphate]
Could you kindly indicate whether a or b has the higher electrical conductivity value? Please identify the chosen entry by its label. b

###

reported-conditions: 308.15 K; 101.33 kPa; Liquid; Concentric cylinders viscometry
measurement-type: viscosity (mPa·s)

compound="CCCCn1cc[n+](C)c1.O=C([O-])O [1-butyl-3-methylimidazolium hydrogen carbonate]" measurement_type=viscosity reported_value=45.33

(1) CCCCCn1cc[n+](C)c1.O=C([O-])O [3-methyl-1-pentylimidazolium hydrogen carbonate]
(2) CCC[n+]1ccn(C)c1.O=P([O-])(O)O [1-methyl-3-propylimidazolium dihydrogen phosphate]
(3) CCCCn1cc[n+](C)c1C.O=S(=O)([O-])O [1-butyl-2,3-dimethylimidazolium hydrogen sulfate]
Order the items by recorded viscosity; the first position goes to the largest value. Response format: the labels, sorted as the prompt asks. 3, 1, 2
(3: 206.3 mPa·s, 1: 66.77 mPa·s, 2: 39.3 mPa·s)
